- assay-system: CDK2/cyclin A (Homo sapiens, UniProt P24941)
- Construct: made in house; host or cells: insect cells
- assay: CDK2/cyclin A kinase assay
- Type: biochemical
- experimental-parameters: unit inferred; read-out: Inhibition of CDK2/cyclin A, IC50
metric-name: IC50 (µM)

> print(dat)
                           molecular.string                              assay.system  metric.name  output.unit  reported
1  CC(C)n1cnc2c(NCc3ccc(-c4ccccn4)cc3)cc(NC[C@H](O)CO)nc21  CDK2/cyclin A (Homo sapiens, UniProt P24941)         IC50           µM      0.12

---

Entries and their measured pIC50 follow.
- System: SH-SY5Y human neuroblastoma cells
- assay: Cell survival (MTS assay), SH-SY5Y
- Type: cell-based
- experimental-parameters: Table 4, MTS assay, read-out: SH-SY5Y cell survival
pIC50: −log10 of the molar value.
metric-name: pIC50

> print(dat)
                                   compound  sign  reported
1  CC(C)n1cnc2c(NCc3ccccc3)cc(NC(=O)C(F)(F)F)nc21     <      4.00
2  CC(C)n1cnc2c(NCc3ccccc3)cc([N+](=O)[O-])nc21     =      4.13
3         CC(C)n1cnc2c(NCc3ccccc3)cc(N)nc21     <      4.00
4  CC[C@H](CO)Nc1cc(NCc2ccccc2)c2ncn(C(C)C)c2n1 [(R)-perharidine A]     =      4.79

---

- Tested on: B2-CLL lymphocytes
- assay: Survival / cell death of B2-CLL lymphocytes from patients
- Assay type: cell-based, human
- experimental-parameters: Homo sapiens, Lymphocyte, LLC B-cells; read-out: Cell death induction
metric-name: IC50 (µM)

> print(dat)
                                   molecule  metric.name  reported
1  CC[C@@H](CO)Nc1cc(NCc2ccc(-c3ccccn3)cc2)c2ncn(C(C)C)c2n1 [(S)-perharidine D]         IC50      0.13
2  CC[C@H](CO)Nc1cc(NCc2ccc(-c3ccccn3)cc2)c2ncn(C(C)C)c2n1 [(R)-perharidine C]         IC50      0.31
3  CC[C@H](CO)Nc1cc(NCc2ccccc2)c2ncn(C(C)C)c2n1 [(R)-perharidine A]         IC50      7.05
4  CC[C@@H](CO)Nc1cc(NCc2ccccc2)c2ncn(C(C)C)c2n1 [(S)-perharidine B]         IC50      15.3

---

- assay-system: CDK5/p25 (Homo sapiens)
- Construct: made in house
- Sequence (Q00535 whole entry): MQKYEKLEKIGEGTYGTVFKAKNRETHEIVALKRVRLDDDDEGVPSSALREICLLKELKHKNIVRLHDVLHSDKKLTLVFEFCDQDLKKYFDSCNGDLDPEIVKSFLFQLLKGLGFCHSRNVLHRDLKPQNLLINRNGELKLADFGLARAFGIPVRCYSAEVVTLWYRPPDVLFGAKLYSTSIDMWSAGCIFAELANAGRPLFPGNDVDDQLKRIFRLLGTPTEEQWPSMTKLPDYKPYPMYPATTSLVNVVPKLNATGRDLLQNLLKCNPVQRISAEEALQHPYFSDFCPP
- Sequence (Q15078 99-307 partner limits assumed): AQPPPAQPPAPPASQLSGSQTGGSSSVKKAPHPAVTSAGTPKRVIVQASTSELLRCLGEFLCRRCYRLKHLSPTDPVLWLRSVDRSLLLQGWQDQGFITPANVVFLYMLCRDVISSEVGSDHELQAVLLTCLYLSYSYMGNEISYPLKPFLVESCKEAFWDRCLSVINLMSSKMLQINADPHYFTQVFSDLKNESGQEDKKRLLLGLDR
- assay: CDK5/p25 kinase assay
- Type: biochemical
- experimental-parameters: Table 4; read-out: CDK5
- Procedure: Controls were performed with appropriate dilutions of dimethylsulfoxide. ATP (3,000 Ci/mmol; 10 mCi/ml) in a final volume of 30 μl. After 30 min. incubation at 30° C., 25 μl aliquots of supernatant were spotted onto 2.5×3 cm pieces of Whatman P81 phosphocellulose paper, and, 20 sec. later, the filters were washed five times (for at least 5 min. each time) in a solution of 10 ml phosphoric acid/liter of water. The wet filters were counted in the presence of 1 ml ACS (Amersham) scintillation fluid.
metric-name: IC50 (µM)

> print(dat)
                                   compound  metric.name  reported
1  CC(C)n1cnc2c(NCc3ccccc3)cc(N)nc21 [Formula If]         IC50       3.8
2  CC(C)n1cnc2c(NCc3ccccc3)cc([N+](=O)[O-])nc21 [Formula Ie]         IC50       0.8
3  CC(C)n1cnc2c(NCc3ccccc3)cc(NC(=O)C(F)(F)F)nc21 [Formula Ig]         IC50      0.63
4  CC[C@H](CO)Nc1cc(NCc2ccccc2)c2ncn(C(C)C)c2n1 [(R)-perharidine A]         IC50       0.2
